Test system: Escherichia coli TOP10
Test Protocol: shrunken log2 fold change of peptide-encoding DNA abundance (4.5 h post-induction vs induction); higher = less antimicrobial activity (less host growth inhibition)
Setup Conditions: time post-induction: 4.5 h; library: site-saturation at positions 5, 18, 19, 20
Everything with shrunken log2 fold change lower than -0.1 is -1; everything else, including exactly -0.1, is 1.

Reported shrunken log2 fold change reaches at least -0.1 for `RRIRLRPPRLPRPRPRPCFNPRP` ?
-1

Form field: shrunken log2 fold change at least -0.1? Entry: `RRIRMRPPRLPRPRPRPLKGPRP`
1

Threshold query (shrunken log2 fold change >= -0.1) on `RRIRPRPPRLPRPRPRPIRRPRP`
1

Could you verify whether the entry `RRIRCRPPRLPRPRPRPQHWPRP` shows shrunken log2 fold change of no less than -0.1?
1

Please indicate if the recorded shrunken log2 fold change for `RRIRRRPPRLPRPRPRPSFMPRP` meets or exceeds -0.1.
-1

Answer whether shrunken log2 fold change of `RRIRWRPPRLPRPRPRPSYPPRP` is greater than or equal to -0.1.
-1

* * *

Test system: Escherichia coli TOP10;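 also: peptides expressed intracellularly from a pBAD plasmid library in pooled LB shake-flask culture, induced with 0.3% L-arabinose, DNA abundance read by NGS, three biological replicates, DESeq2 with apeglm shrinkage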
Test Protocol: shrunken log2 fold change of peptide-encoding DNA abundance (4.5 h post-induction vs induction); higher = less antimicrobial activity (less host growth inhibition)
Setup Conditions: time post-induction: 4.5 h; library: site-saturation at positions 5, 18, 19, 20
Task for the reader: assign each of the following sequences its reported shrunken log2 fold change.
Respond with the number and no other words.

Reported shrunken log2 fold change of `RRIRGRPPRLPRPRPRPTMTPRP` : 2.08

// recorded shrunken log2 fold change for `RRIRCRPPRLPRPRPRPYIMPRP` : -1.48

`RRIRGRPPRLPRPRPRPKIKPRP` has a reported shrunken log2 fold change of 0.564

Query `RRIRCRPPRLPRPRPRPYRGPRP` yields shrunken log2 fold change of -0.992

For reference, reported shrunken log2 fold change for `RRIRCRPPRLPRPRPRPTGWPRP` stands at 0.314

Record summary for `RRIRRRPPRLPRPRPRPCMHPRP` : reported shrunken log2 fold change = 0.105

Noted for `RRIRDRPPRLPRPRPRPRHFPRP` : its shrunken log2 fold change reads -0.0107

Query `RRIRCRPPRLPRPRPRPMHNPRP` yields shrunken log2 fold change of -0.293

Input `RRIRPRPPRLPRPRPRPQHIPRP` . Output shrunken log2 fold change: -0.648

// sample `RRIRQRPPRLPRPRPRPHTMPRP` , its shrunken log2 fold change was -0.9

Query `RRIRHRPPRLPRPRPRPRVIPRP` yields shrunken log2 fold change of -0.12

shrunken log2 fold change in this record for `RRIRFRPPRLPRPRPRPARIPRP` : -0.0549

Value of measured shrunken log2 fold change for the entry `RRIRDRPPRLPRPRPRPMFAPRP` : 0.199

The value of shrunken log2 fold change measured for the sequence `RRIRERPPRLPRPRPRPNTAPRP` turned out to be 0.0197

Entry `RRIRPRPPRLPRPRPRPFWWPRP` , shrunken log2 fold change reported as 0.55

Query `RRIRIRPPRLPRPRPRPIDEPRP` yields shrunken log2 fold change of 0.0184

So for `RRIRWRPPRLPRPRPRPANSPRP` , the logged shrunken log2 fold change turned out to be 0.0236

Notebook: `RRIRCRPPRLPRPRPRPYMVPRP` , shrunken log2 fold change read as -0.462

response.value for `RRIRERPPRLPRPRPRPAEVPRP` (field: shrunken log2 fold change) = -0.0184

Record `RRIRIRPPRLPRPRPRPNLPPRP` , field shrunken log2 fold change: -0.173

Form: sequence = `RRIRVRPPRLPRPRPRPHKHPRP` ; shrunken log2 fold change = -0.483
